Tested on: M-07e cells
measurement.description: M-07e cellular assay (SCF-mediated cell proliferation)
Assay type: cell-based
assay.conditions: Homo sapiens, 72 hours, CellTiter Glo
measure.name: EC50

1) Cc1ccc(-c2noc([C@H]3C[C@@H]3F)n2)cc1NC(=O)c1cnn2ccc(N3CCN(C(=O)OC(C)(C)C)C[C@H]3C)cc12: 100 to 1000 nM
2) Cc1sc(-c2nccc(C3CC3)n2)cc1NC(=O)c1cnn2ccc(N3CC4(C3)CC(O)(C(F)F)C4)cc12: 100 to 1000 nM
3) Cc1ccc(-c2noc([C@H]3C[C@@H]3F)n2)cc1NC(=O)c1cnn2ccc(O[C@H]3CCOC3)cc12: 100 to 1000 nM
4) Cc1ccc(-c2noc([C@H]3C[C@@H]3F)n2)cc1NC(=O)c1cnn2ccc(N3CC(COCc4ccccc4)(C(=O)OCc4ccccc4)C3)cc12: > 1000 nM
5) Cc1ccc(-c2noc([C@H]3C[C@@H]3F)n2)cc1NC(=O)c1cnc(-c2ccc3[nH]c4ccccc4c3c2)o1: 100 to 1000 nM
6) Cc1ccc(-c2noc([C@H]3C[C@@H](OC(F)(F)F)C3)n2)cc1NC(=O)c1cnn2ccc(N3CC4(C3)CC(O)(C(F)(F)F)C4)cc12: < 100 nM
7) Cc1ncc(-c2noc([C@H]3CN(C(=O)C(C)(F)F)[C@@H]3C)n2)cc1NC(=O)c1cnn2ccc(N3CC4(C3)CC(O)(C(F)F)C4)cc12: 100 to 1000 nM
8) Cc1ccc(-c2noc([C@H]3C[C@@H]3F)n2)cc1NC(=O)c1cnc2n1Cc1ccccc1-2: < 100 nM
9) Cc1ccc(-c2noc(C3CCN(C(=O)[C@H]4C[C@@H]4F)CC3)n2)cc1NC(=O)c1cnn2ccc(N3CC4(COC4)C3)cc12: 100 to 1000 nM
10) Cc1ccc(-c2noc([C@H]3C[C@@H](OC(F)(F)F)C3)n2)nc1NC(=O)c1cnn2ccc(N3CC4(COC4)C3)cc12: 100 to 1000 nM

* * *

# EC50 per record follows
Tested on: M-07e cells
measurement.description: M-07e cellular assay (SCF-mediated cell proliferation)
Format: cell-based
assay.conditions: Homo sapiens, 72 hours, CellTiter Glo
measure.name: EC50

1. Cc1ccc(-c2noc([C@H]3C[C@@H]3F)n2)cc1NC(=O)c1cnn2ccc(N3C4CCC3CC(O)C4)cc12 (stereo partly shown) [Example 204]: < 100 nM
2. Cc1ccc(-c2noc([C@H]3C[C@@H]3F)n2)cc1NC(=O)c1cnn2ccc(N3CC[C@H]3C(=O)OC(C)(C)C)cc12 [Example 209]: 100 to 1000 nM
3. Cc1ccc(-c2noc([C@H]3C[C@@H]3F)n2)cc1NC(=O)c1cnc(-c2ccc3c(c2)NC(=O)CO3)o1 [Example 308-52]: 100 to 1000 nM
4. Cc1ccc(-c2noc([C@H]3C[C@@H]3F)n2)cc1NC(=O)c1cnn2ccc(-c3ccc(N4CC5(COC5)C4)nc3C)cc12 [Example 171-19]: < 100 nM
5. COc1ccc(-c2ccn3ncc(C(=O)Nc4cc(-c5noc([C@H]6C[C@@H]6F)n5)ccc4C)c3c2)c(C)n1 [Example 171-20]: < 100 nM
6. Cc1ncc(-c2noc([C@H]3C[C@@H]3C(F)F)n2)cc1NC(=O)c1cnn2ccc(N3CC4(C3)CC(O)(C(F)F)C4)cc12 [Example 281-64]: < 100 nM
7. Cc1ccc(-c2noc([C@H]3C[C@@H](OC(F)(F)F)C3)n2)cc1NC(=O)c1cnn2ccc(N3CC4(CCN(CC(F)(F)F)C4)C3)cc12 [Example 252]: 100 to 1000 nM
8. Cc1ncc(-c2noc(C3CN(CC(F)(F)F)C3)n2)cc1NC(=O)c1cnn2ccc(N3CC4(C3)CC(O)(C(F)F)C4)cc12 [Example 281-88]: < 100 nM
9. Cc1ccc(-c2noc([C@H]3C[C@@H]3F)n2)cc1NC(=O)c1cnn2ccc(N3CC4(C3)CC(O)(C(F)(F)F)C4)cc12 [Example 233]: < 100 nM
10. COc1ccn2ncc(C(=O)Nc3cc(-c4noc([C@H]5C[C@@H]5F)n4)ccc3C)c2c1 [Example 60]: < 100 nM
11. Cc1ccc(-c2noc([C@H]3C[C@@H]3F)n2)cc1NC(=O)c1cnn2ccc(N3CC4(C3)CS(=O)(=O)C4)cc12 [Example 187]: < 100 nM
12. Cc1ccc(-c2noc([C@H]3C[C@@H]3F)n2)cc1NC(=O)c1cnn2ccc(-c3c(C)nc(N4CCC4)nc3C)cc12 [Example 171-12]: 100 to 1000 nM
13. Cc1ccc(-c2noc([C@@H]3C[C@H]3C(F)F)n2)cc1NC(=O)c1cnn2ccc(N3CC4(COC4)C3)cc12 [Example 281-1]: < 100 nM
14. Cc1ccc(-c2noc([C@H]3C[C@@H]3F)n2)cc1NC(=O)c1cnn2cc(F)c(Br)cc12 [Example 62]: > 1000 nM
15. Cc1ccc(-c2noc([C@H]3C[C@@H]3F)n2)cc1NC(=O)c1cnc(-n2cccn2)o1 [Example 308-5]: > 1000 nM
16. Cc1ccc(-c2noc([C@H]3C[C@@H]3F)n2)cc1NC(=O)c1cnn2cc(-c3cn(C4CC4)nn3)ccc12 [Example 114]: < 100 nM
17. Cc1ccc(-c2noc([C@H]3C[C@@H]3F)n2)cc1NC(=O)c1cnc(-c2ccc3c(c2)O[C@@H](C)CN3)o1 [Example 308-53]: 100 to 1000 nM
18. Cc1ccc(-c2noc([C@H]3C[C@@H]3F)n2)cc1NC(=O)c1cnn2ccc(N3CC[C@H](N(C)C(=O)OC(C)(C)C)C3)cc12 [Example 203]: 100 to 1000 nM
19. Cc1ncc(-c2ncc(OC(F)(F)F)cn2)cc1NC(=O)c1cnn2ccc(-c3c(C)nc(N)nc3C)cc12 [Example 364]: < 100 nM
